Hey, just so you know, these numbers are from a melting point compilation (Tetko et al.).

Answer each item with its documented melting point.

Solved entries (count: 3):
>  <Compound>
COc1ccc(C2CC2C(=O)O)cc1 (centres undefined)

>  <melting point>
109 to 111 °C

$$$$
>  <Compound>
NS(=O)(=O)c1ccc2c(c1)CCCO2

>  <melting point>
145 to 147 °C

$$$$
>  <Compound>
Clc1nc(-c2cccs2)nc2scc(-c3ccccc3)c12

>  <melting point>
143 to 145 °C

$$$$

Below: the item to evaluate.
Prompt: // melting point lookup, key: CCC(=O)N1CCc2cc(C(=O)CCl)ccc21
Response: 201 to 203 °C

###

Readout: melting point

Could you tell me melting point for each of these compounds? They are listed below.
1. O=C(O)CNc1ccc(Cl)cc1
2. CCOC(=O)c1sc(N)c(C(=O)OC(C)(C)C)c1C
3. Cc1cccc(NC(=O)C2CCCNC2)n1 (configuration not stated)
4. OC1CCN(c2cnnc3ccccc23)CC1
5. CC(C)NC(=O)CCCl
6. N#Cc1ccc(S)c(Cl)c1

Response:
142 to 144 °C
90 to 92 °C
124 to 126 °C
84 to 86 °C
67 to 69 °C
81 to 83 °C

Could you tell me melting point for each of these compounds? They are listed below.
1. Cc1n[nH]c2ncc(N)cc12
2. CCC(C(=O)O)c1cccc(C(F)(F)F)c1 (configuration not stated)
3. COC(=O)c1ccc(N)c(OC(F)F)c1
4. Cc1nn(C)c(SCC(=O)O)c1C=O
5. CCCS(=O)(=O)Nc1cccc(N)c1

Response:
["186 to 188 °C", "41 to 43 °C", "64 to 66 °C", "126 to 128 °C", "63 to 65 °C"]

Could you tell me melting point for each of these compounds? They are listed below.
1. O=C(O)c1cc(Br)cc(S(=O)(=O)Cl)c1
2. O=C(O)CNS(=O)(=O)c1ccc(F)cc1
3. O=c1[nH]c(-c2cccc(Br)c2)no1
4. Cn1c(C=O)nc2ccccc21
5. CCCn1c(C)cc(C=O)c1C
6. NC(=O)c1ccsc1N

Response:
154 to 156 °C
146 to 148 °C
198 to 200 °C
119 to 122 °C
52 to 54 °C
160 to 162 °C

Could you tell me melting point for each of these compounds? They are listed below.
1. Cc1nc2s[nH]c(=O)c2c(C)c1C
2. CC(C)(C)OC(=O)Nc1snnc1C(=O)O
3. Cc1cc(N)n(-c2ccccc2C(F)(F)F)n1
4. CC(C(=O)O)C(NC(=O)OC(C)(C)C)c1ccccc1 (configuration not stated)
5. CC(=O)Nc1sc2c(c1C(=O)O)CCCC2

Response:
["236 to 238 °C", "139 to 141 °C", "102 to 104 °C", "71 to 73 °C", "210 to 212 °C"]
